- Test system: A498 renal
- method description: NCI-60 one-dose screen, 48 h (100 = growth as untreated, 0 = no growth, -100 = all killed)
- condition label: 10 µM unless noted
About 83,000 compounds went through this panel and 20% of them were active in at least one assay; those are over-represented in the sample as a whole.
So basically, if growth comes in under 90% it's MET, and if it's 90% or more it's NOT MET.

>>> cat("Cc1ncn(-c2ccc(/C=N/Nc3ccnc4cc(Cl)ccc34)cc2)c1C")
"MET"
>>> cat("CCN(CC)S(=O)(=O)c1ccc(-c2nc(C(Cl)Cl)nc3cc(C)nn23)cc1")
"MET"
>>> cat("Cc1ccc2c(n1)C(=O)C(Cl)=C(Nc1ccc(C#N)cc1)C2=O")
"MET"
>>> cat("O=C(Nc1ccc(Cl)c(C(F)(F)F)c1)Nc1ccc2oc(=O)ccc2c1")
"MET"
>>> cat("Cn1ncc2ncc(-c3ccc4ncc(C#N)c(N5CCc6cc(F)c(Cl)cc65)c4c3)cc21")
"MET"
>>> cat("Nc1cc(C(=O)N/N=C\\c2ccc(OC(F)F)c(OC3CCCC3)c2)nn1CC(O)c1ccccc1 (stereo not drawn)")
"NOT MET"
>>> cat("Cn1ncc2c(C(=O)c3ccc(F)cc3)nc(C(C)(C)C)nc21")
"MET"
>>> cat("CCc1cc(OC(=O)N2CCN(CCC(C)(COC(C)(C)C)COC(C)(C)C)CC2)ccc1Nc1cc(-c2ccc(-n3cccn3)cc2)[nH]n1")
"MET"
>>> cat("O=C1C(SCc2ccccc2)=C(Cl)CN1c1ccccc1")
"NOT MET"
>>> cat("CSc1ccc(C(=NNS(=O)(=O)c2ccc(C)cc2)c2ccc(Cl)cc2)cc1")
"NOT MET"
>>> cat("CC(Nc1c(C#N)cnc2ccc(-c3cncc(O)c3)cc12)c1ccccc1 (stereo not drawn)")
"MET"
>>> cat("Cc1ccc(C(=O)CSc2nnc(-c3ccc(-c4ccc(Cl)cc4)nc3C)o2)cc1")
"NOT MET"
>>> cat("CC1=C(C)C(=O)C(Nc2cccc(C(F)(F)F)c2)=C(Br)C1=O")
"MET"
>>> cat("CC(C)(C)OC(=O)Nc1ccc(-c2cccc(Oc3ccc4nnc(Cl)n4n3)c2)cc1")
"MET"
>>> cat("Cn1cc(C2=C(c3coc4cc(Br)ccc34)C(=O)NC2=O)c2ccccc21")
"MET"
>>> cat("C/C(=N\\NC(=O)Nc1ccccc1)c1nnn(-c2ccc([N+](=O)[O-])cc2)c1C")
"NOT MET"
>>> cat("COc1cc(OC)cc(-c2cc(-c3c[nH]c4ccccc34)nc(-c3c[nH]c4ccccc34)c2C#N)c1")
"NOT MET"
>>> cat("COc1ccccc1/C=C1\\Oc2ccc(O)c(O)c2C1=O")
"MET"
>>> cat("C#C[C@]1(O)CC[C@H]2[C@@H]3CC=C4c5sc(NCc6ccccc6)nc5CC[C@]4(C)[C@H]3CC[C@@]21C")
"MET"
>>> cat("Brc1cccc(-c2cc(-c3ccc4c(c3)OC=CO4)[nH]n2)c1")
"MET"
>>> cat("O=C(CCCCCCNC(=O)C(O)(O)C(F)(F)F)Nc1nc2ccccc2s1")
"MET"
>>> cat("COc1ccc([C@H]2C(=O)N(c3cc(OC)c(OC)c(OC)c3)[C@@H]2c2ccc(OC)c(O)c2)cc1")
"MET"

* * *

- Tested on: SF-295 CNS
- method description: NCI-60 one-dose screen, 48 h (100 = growth as untreated, 0 = no growth, -100 = all killed)
- condition label: 10 µM unless noted
The panel holds about 83,000 compounds, 20% with a hit somewhere; the sample as a whole holds those more often.
experimental readout: growth (%)

>>> assay_result("C/C(=C(/C)C1CC1CCNC1CCC(NC(=O)OC(C)(C)C)CC1)c1ccccc1 (stereo unspecified)")
77.8
>>> assay_result("CN1CCN(Cc2ccc(NC(=O)c3cncc(C#Cc4cnc5ccc(N)nn45)c3)cc2C(F)(F)F)CC1")
53.8
>>> assay_result("CN1CC[C@@H]2[C@@]3(C)CC[C@H](O)C(C)(C)[C@@H]3CC[C@@]2(C)[C@]2(C)CC[C@@]3(CO)CCC(C)(C)C[C@@H]3C12 (stereo partly specified)")
104
>>> assay_result("O=C(COc1ccc(/C=C2\\C(=O)Nc3ccc(Cl)cc32)cc1)Nc1ccc(Cl)cc1")
59.2
>>> assay_result("CC(Nc1c(C#N)cnc2ccc(-c3cncc(-c4n[nH]c(=O)o4)c3)cc12)c1ccccc1 (stereo unspecified)")
-7.24
>>> assay_result("COc1ccccc1Cn1cc(C#N)c(N)c1C(=O)c1ccc(Br)cc1")
93

* * *

- Tested on: SF-295 CNS
- method description: NCI-60 one-dose screen, 48 h
- condition label: 10 µM unless noted
Compounds without any hit were thinned out: in the full panel of roughly 83,000, 20% have a hit. The source made the active and inactive calls. The calls were made as follows: active = growth percent below 10; inactive = the rest.
Possible outcomes: 1 = active, -1 = inactive

>>> cat("COc1cc(/C=C2/C(=O)Nc3ccc(Cl)cc32)ccc1OCc1ccc(Cl)cc1")
-1
>>> cat("COc1ccc(N2CCN(C3=C(Cl)C(=O)c4ncccc4C3=O)CC2)cc1")
-1
>>> cat("CN(C)CCNc1ccc2ncc(C#Cc3cncc(C(=O)Nc4ccc(CN5CCN(C)CC5)c(C(F)(F)F)c4)c3)n2n1")
-1
>>> cat("O=C(/C=C/c1cccc(C(F)(F)F)c1)Nc1cccc(C(F)(F)F)c1")
-1
>>> cat("NS(=O)(=O)c1cccc(Nc2nc(SCC(=O)c3ccc(Cl)cc3)nc3c2CCC3)c1")
-1
>>> cat("C=CCSC1=NC2C(N(CC)C(=O)N2CC)N1/N=C/C=C/c1ccccc1OC (centres undefined)")
-1
>>> cat("CC(=O)Nc1ccccc1-c1nc2ccccc2s1")
-1
>>> cat("CN(C)c1cccc2c(S(=O)(=O)Nc3cccc(-c4csc(NC(=O)CCCCCN5CCN(CCO)CC5)n4)c3)cccc12")
-1
>>> cat("CCc1cc(OC(=O)N2CCN(CCC(C)(COC(C)(C)C)COC(C)(C)C)CC2)ccc1Nc1cc(-c2ccc(-n3cccn3)cc2)[nH]n1")
-1
>>> cat("COc1ccc2c(c1)C=CC1(O2)Oc2ccc(OC)cc2C=C1C (centres undefined)")
1
>>> cat("Cc1ccc2c(n1)C(=O)C(Cl)=C(Nc1ccc(C)c(C)c1)C2=O")
-1
>>> cat("Cc1csc(/N=C(N)/N=C(\\N)c2cccs2)n1")
-1
>>> cat("CC(C)NC(=O)c1cc(-c2ccc(NC(=O)Nc3ccc(F)c(C(F)(F)F)c3)cc2)nc2cccnc12")
-1
>>> cat("CC(=O)c1c([Si](C)(C)C)c2cc(C#N)ccn2c1C(=O)c1ccc(Br)cc1")
-1
>>> cat("COC(=O)[C@@H](Cc1c[nH]c2ccccc12)NC(=O)CCCCOc1cc(O)c2c(=O)cc(-c3ccccc3)oc2c1")
-1
>>> cat("COc1ccc(C(C)=C(c2ccc(OCCN3CCCCCC3)cc2)c2ccc(OCCN3CCCCCC3)cc2)cc1")
1
>>> cat("COc1ccc([C@H]2C(=O)N(c3cc(OC)c(OC)c(OC)c3)[C@@H]2c2ccc(OC)c(O)c2)cc1")
-1
>>> cat("COc1ccc(/C=N/NC(=O)c2c(N)nn(C)c2Nc2ccccc2)cc1")
1
>>> cat("CCOC(=O)Nc1ccc2c(ccn2C(=O)c2cccc(F)c2)c1")
-1
>>> cat("COc1cc(NC(=O)Nc2cccc(-c3cc(=O)c4c(OC)c(OC)c(OC)cc4o3)c2)cc(OC)c1OC")
-1
>>> cat("O=C(/C=C/c1ccccc1)c1cccc(O)c1")
-1
>>> cat("Cc1ccc([C@H]2c3[nH]c4ccccc4c3C[C@H]3C(=O)N(CCCCCCC(=O)NO)CC(=O)N23)s1")
-1
>>> cat("O=C(CSc1nnc(-c2cccs2)n1-c1ccccc1)Nc1ccccc1")
-1
>>> cat("CN1CCN(Cc2ccc(NC(=O)c3cncc(C#Cc4cnc5ccc(NCCO)nn45)c3)cc2C(F)(F)F)CC1")
-1

* * *

A collection of molecules and their measured growth
- System: SNB-75 CNS
- method description: NCI-60 one-dose screen, 48 h (100 = growth as untreated, 0 = no growth, -100 = all killed)
- condition label: 10 µM unless noted
The panel holds about 83,000 compounds, 20% with a hit somewhere; the sample as a whole holds those more often.
experimental readout: growth (%)

>>> assay_result("O=S(=O)(Oc1ccc(-c2cn3ccoc3n2)cc1)C1CCCCC1")
124
>>> assay_result("COc1ccc(-c2c3c(cn2Cc2cccc(OC)c2)-c2oncc2CCC3)cc1")
103
>>> assay_result("CCCCc1nc2c(N)nc3ccccc3c2n1Cc1ccc(OC)cc1")
66.2
>>> assay_result("CN1c2ccccc2Sc2cc(/C=N/Nc3ccnc4cc(Cl)ccc34)ccc21")
104
>>> assay_result("c1ccc(-c2cn3c(-c4c[nH]c5ccccc45)csc3n2)cc1")
80.9
>>> assay_result("CCOC(=O)c1cccc(NC2=C(Cl)C(=O)c3nc(C)ccc3C2=O)c1")
108
>>> assay_result("N#Cc1cnc2ccc(-c3cnc4n[nH]nc4c3)cc2c1N1CCc2cc(F)c(Cl)cc21")
-0.117

Every entry's value here was drawn from PubChem BioAssay (NCI).
